# Test system: KM12 colon
# Test Method Notes: NCI-60 one-dose screen, 48 h
# Study Conditions: 10 µM
# Procedure: Growth inhibition of the KM12 human tumor cell line is measured as a screen for anti-cancer activity. Cells are grown in 96 well plates and exposed to the test compound for 48 hours. Compounds are tested at a single concentration, which is 10^-5 M for most compounds. The reported endpoint is percent growth (GI% or GIPRCNT), where numbers from 0 - 100% represent growth inhibition, and numbers from -100% - 0 represent cell death. For example, a value of 40 represents 60% growth inhibition. […]
This is part of a sample that, as a whole, favours compounds with a hit. Of some 83,000 tested, about 20% had one in any assay. Active and inactive are the calls of the source. How the source made its calls: active means growth percent below 10; inactive means the rest.
Respond with a class label; see active, inactive

// return assay outcome for COc1ccc(C(O)c2ccccc2)cc1 (centres undefined)
inactive

// return assay outcome for O=C(c1ccccc1)C1CCC1
inactive

// return assay outcome for COc1ccc2c(NCCCCCCCCNc3c4ccccc4nc4cc(OC)ccc34)c3ccccc3nc2c1
active

// return assay outcome for OCC1OC(OC2C(O)C(CO)OC2(CO)OC2OC(CO)C(O)C(O)C2O)C(O)C(O)C1O (centres undefined)
inactive

// return assay outcome for Cc1cccc(CO)c1
inactive

// return assay outcome for O=C(c1ccc(O)cc1)c1ccc(O)cc1
inactive

// return assay outcome for COc1ccc(C2(O)CCCCC2)cc1
inactive

// return assay outcome for CCCNC(=O)c1ccc(S(N)(=O)=O)cc1
inactive

----------
# Test system: IGROV1 ovarian
# Test Method Notes: NCI-60 one-dose screen, 48 h (100 = growth as untreated, 0 = no growth, -100 = all killed)
# Study Conditions: 10 µM
About 83,000 compounds went through this panel and 20% of them were active in at least one assay; those are over-represented in the sample as a whole.
Reported Metric: growth (%)
// return numeric value only (unit: %, not printed)

Some molecules with recorded growth:
> print(dat)
                     query.smiles  reported.metric  value.observed
1      CCNc1nc2c(cnn2C)c(=O)[nH]1           growth            84.5
2   NC(=O)c1ccc(N=C(N)N=C(N)N)cc1           growth             102
3  O=C(O)c1cc([N+](=O)[O-])ccc1Cl           growth             117

# lookup: growth of CC(C)=CC(=O)OC(=O)C=C(C)C
106

# lookup: growth of NC(N)=Nc1cc2ccccc2c2ccccc12
65.2

# lookup: growth of NC(=O)NC(=O)c1ccc(Cl)cc1
92.6

# lookup: growth of CC1=CC(=O)c2ccccc2C1=O
112

----------
# Tested on: MALME-3M melanoma
# Test Method Notes: NCI-60 one-dose screen, 48 h (100 = growth as untreated, 0 = no growth, -100 = all killed)
# Study Conditions: 10 µM
The panel holds about 83,000 compounds, 20% with a hit somewhere; the sample as a whole holds those more often. Active and inactive are the calls of the source. How the source made its calls: active means growth percent below 10; inactive means the rest.
Reported Metric: growth

> print(dat)
                                   compound    subject.of.test  reported.metric   value.observed
1  CCCC1(c2ccccc2)NC(=O)NC1=O (stereo not given)  MALME-3M melanoma           growth  121% (inactive)
2                    COC(=O)Nc1cccc(Cl)c1OC  MALME-3M melanoma           growth  106% (inactive)

Which growth is reported with MALME-3M melanoma for this entry: Oc1ccc(O)cc1 ?
102% (inactive)

Which growth is reported with MALME-3M melanoma for this entry: Cc1c(O)cnc2nn(-c3ccccc3)c(=N)n12 ?
124% (inactive)

Which growth is reported with MALME-3M melanoma for this entry: CCOC(=O)c1[nH]c(C)c(C(=O)O)c1C ?
122% (inactive)

Which growth is reported with MALME-3M melanoma for this entry: OCCN(CCO)C(=S)S ?
95.1% (inactive)

Which growth is reported with MALME-3M melanoma for this entry: C=CCNc1nnc(C)s1 ?
106% (inactive)

Which growth is reported with MALME-3M melanoma for this entry: O=C1C=C(O)C(=O)C=C1O ?
144% (inactive)

----------
# Test system: TK-10 renal
# Test Method Notes: NCI-60 one-dose screen, 48 h (100 = growth as untreated, 0 = no growth, -100 = all killed)
# Study Conditions: 10 µM unless noted
The panel holds about 83,000 compounds, 20% with a hit somewhere; the sample as a whole holds those more often.
Reported Metric: growth (%)
// return numeric value only (unit: %, not printed)

Some compounds with recorded growth:
> print(dat)
                       compound  subject.of.test  value.observed
1       CCOc1ccc2[nH]c(=S)sc2c1      TK-10 renal             103
2  CCOc1ccc(/C=N/N=C(N)N)cc1OCC      TK-10 renal             106

Note: attention shifts to another entry.
# lookup: growth of C[C@]12CC[C@@H]3c4ccc(OCC(=O)O)cc4CC[C@H]3[C@@H]1CCC2=O
103

----------
# Tested on: UACC-62 melanoma
# Test Method Notes: NCI-60 one-dose screen, 48 h (100 = growth as untreated, 0 = no growth, -100 = all killed)
# Study Conditions: 10 µM unless noted
The panel holds about 83,000 compounds, 20% with a hit somewhere; the sample as a whole holds those more often.
Reported Metric: growth (%)
// return numeric value only (unit: %, not printed)

Some compounds with recorded growth:
Compound	Value Observed
O=C(CS)Nc1ccc2ccccc2c1	94.1
CC(=O)Cc1ccc(-c2ccccc2)cc1	87.5
CSC[C@H](NC(=O)COc1cccc2cnccc12)C(=O)NC(Cc1ccccc1)C(O)C(=O)N1CSC[C@H]1C(=O)NC(C)(C)C (stereo not given in full)	98.3
COC(=O)/C=C1\Sc2cc(F)ccc2NC1=O	88.8
CCO/C=C1\SC(=S)N(c2cccc(C)c2)C1=O	105

# lookup: growth of c1ccc(CN2COc3c(ccc4c3OCN(Cc3ccccc3)C4)C2)cc1
-39.1

# lookup: growth of CCOC(=O)c1[nH]c(C)c(C(C)=O)c1C
100

# lookup: growth of O=C(O)c1ccnc(Br)c1
106

# lookup: growth of O=C(/C(=N/O)c1ccccc1)c1ccccc1
88.3

# lookup: growth of C/C=C/CC(C)C(O)C1C(=O)NC(CC)C(=O)N(C)CC(=O)N(C)C(CC(C)C)C(=O)NC(C(C)C)C(=O)N(C)C(CC(C)C)C(=O)NC(C)C(=O)NC(C)C(=O)N(C)C(CC(C)C)C(=O)N(C)C(CC(C)C)C(=O)N(C)C(C(C)C)C(=O)N1C (stereo not given)
2.53

----------
List of growth values.
# Tested on: SK-MEL-5 melanoma
# Test Method Notes: NCI-60 one-dose screen, 48 h (100 = growth as untreated, 0 = no growth, -100 = all killed)
# Study Conditions: 10 µM
Compounds without any hit were thinned out: in the full panel of roughly 83,000, 20% have a hit. The source made the active and inactive calls. How the source made its calls: active means growth percent below 10; inactive means the rest.

Some compounds with recorded growth:
> print(dat)
                                   compound  reported.metric    value.observed
1  c1cc[n+](C2c3ccccc3C([n+]3ccccc3)c3ccccc32)cc1 (centres undefined)           growth  27.6% (inactive)
2                               OCCN1CCOCC1           growth   103% (inactive)
3       OC1CCCc2ccccc21 (centres undefined)           growth   111% (inactive)
4     CCCCC1C(=O)N(c2ccccc2)N(c2ccccc2)C1=O           growth   102% (inactive)
5                          Brc1cnc2ccccc2c1           growth   106% (inactive)
6       c1c(-c2cc(C3CC3)[nH]n2)n[nH]c1C1CC1           growth  82.1% (inactive)

# lookup: growth of O=[N+]([O-])c1ccccc1N=Nc1ccc(O)cc1O
106% (inactive)

# lookup: growth of COc1ccc(C(O)c2ccccc2)cc1 (centres undefined)
99.3% (inactive)

# lookup: growth of CCCCNC(=O)C(=O)NCCCC
100% (inactive)

# lookup: growth of CC(C)(O)C#CC#CC(C)(C)O
99% (inactive)

# lookup: growth of C#CC(C(C)C)N(CCO)CCCC (centres undefined)
100% (inactive)

# lookup: growth of COC(=O)c1cc(-c2ccc(Cl)c(Cl)c2)[nH]c(=O)c1C#N
98.9% (inactive)

# lookup: growth of Sc1ccc(Nc2c3ccccc3nc3ccccc23)cc1
56.6% (inactive)

# lookup: growth of CCOC(=O)C/C(C)=N\O
100% (inactive)

----------
List of growth values.
# System: 786-0 renal
# Test Method Notes: NCI-60 one-dose screen, 48 h (100 = growth as untreated, 0 = no growth, -100 = all killed)
# Study Conditions: 10 µM
Compounds without any hit were thinned out: in the full panel of roughly 83,000, 20% have a hit.
// return numeric value only (unit: %, not printed)

> print(dat)
                                   compound  value.observed
1  C/C(=C\c1cc(Cl)ccc1OCC(=O)O)[N+](=O)[O-]             117

# lookup: growth of Nc1ncnc2c1nc(N)n2C1OC(CO)C(O)C1O (configuration not stated)
-85.6

Cited source for all entries: PubChem BioAssay (NCI)
